tested on: OVCAR-5 ovarian; test: NCI-60 one-dose screen, 48 h (100 = growth as untreated, 0 = no growth, -100 = all killed); conditions: 10 µM unless noted
The panel holds about 83,000 compounds, 20% with a hit somewhere; the sample as a whole holds those more often. Calls of active or inactive are those of the source. The calls were made as follows: active = growth percent below 10; inactive = the rest.
For each record, write down the corresponding growth.

mol-smiles: COc1cc(C(=O)Nc2ccc(N(C)C)cc2)cc(OC)c1OC
growth: 94.7% (inactive)

mol-smiles: COc1ccc(-c2nc(SCC(C)C)nc(Nc3ccc([N+](=O)[O-])cc3)c2C#N)cc1
growth: 106% (inactive)

mol-smiles: COc1ccccc1Nc1nnc(COc2ccc(CNC(=O)CCCC/C=C/C(C)C)cc2OC)o1
growth: 89.7% (inactive)

Can you give me growth for all of these, one by one?
1. CCCC[N+](C)(N)CCCC
2. CCn1cnc(C[C@H](NC(=O)[C@@H](NC(=O)Nc2cc(C(F)(F)F)cc(C(F)(F)F)c2)C(C)(C)C)C(=O)OC)c1

Outgoing:
["103% (inactive)", "-92.8% [100 µM] (active)"]

----------
Test system: CAKI-1 renal
Test: NCI-60 one-dose screen, 48 h (100 = growth as untreated, 0 = no growth, -100 = all killed)
Settings: 10 µM unless noted
Method: Growth inhibition of the CAKI-1 human tumor cell line is measured as a screen for anti-cancer activity. Cells are grown in 96 well plates and exposed to the test compound for 48 hours. Compounds are tested at a single concentration, which is 10^-5 M for most compounds. The reported endpoint is percent growth (GI% or GIPRCNT), where numbers from 0 - 100% represent growth inhibition, and numbers from -100% - 0 represent cell death. For example, a value of 40 represents 60% growth inhibition. […]
This is part of a sample that, as a whole, favours compounds with a hit. Of some 83,000 tested, about 20% had one in any assay.
endpoint-label: growth (%)
Numbers only, in %.

compound: COc1cccc(-c2cc(-c3cc4ccccc4oc3=O)nc(N)n2)c1
growth / %: 111

Can you give me growth for all of these, one by one?
1. Cc1ncc(C(=O)Nc2ccc(CN3CCN(C)CC3)c(C(F)(F)F)c2)cc1C#Cc1c(N)ncc2ccccc12
2. O=C1C(Cl)=C(SC2=NCCN2)C(=O)c2ccccc21

Outgoing:
1. 2.22
2. 93.9

Can you give me growth for all of these, one by one?
1. Cc1ccnc2c(NC(C)CCCN)cc(O)c(O)c12 (configuration not stated)
2. c1cc(C2CCCCC2)ccc1OCCCCCCN1CCNCC1
3. COc1cc(NC(C)CCCN)c2nc(C)ccc2c1OC (configuration not stated)
4. N=C(c1ccccc1)N(Cc1ccccc1)Cc1ccccc1
5. OC(c1ccccc1)(c1ccccc1)C(F)(F)F
6. CCOC(=O)c1csc(-c2ccc(COC(=O)c3ccccc3)o2)n1
7. O=C(NC1CCN(Cc2ccccc2)CC1)c1cc(-c2cccnc2)nc2ccc(Cl)cc12

Outgoing:
1: 89.3; 2: 55.7; 3: 106; 4: 89.8; 5: 97.8; 6: 81.2; 7: 82.6

Can you give me growth for all of these, one by one?
1. CCOC(=O)/C(C#N)=C(/CC)OCC
2. COC(c1ccccc1)C(Br)C(=O)c1ccccc1 (configuration not stated)

Outgoing:
[95.4, 85]

----------
test system: HCT-15 colon; assay: NCI-60 one-dose screen, 48 h (100 = growth as untreated, 0 = no growth, -100 = all killed); conditions: 10 µM unless noted
The panel holds about 83,000 compounds, 20% with a hit somewhere; the sample as a whole holds those more often. Active and inactive are the calls of the source. How the source made its calls: active means growth percent below 10; inactive means the rest.
endpoint-label: growth

compound: CC(CCN1CCN(CCC(C)CC(C)(C)C)C1CC(C)CC(C)(C)C)CC(C)(C)C (stereo not given)
experimental-target: HCT-15 colon
growth: 87.5% (inactive)
//
compound: CCCCCCCCCCCCc1ccc([N+](CC)(CC)CC)cc1
experimental-target: HCT-15 colon
growth: 96% (inactive)

Can you give me growth for all of these, one by one?
1. COC(c1ccccc1)C(Br)C(=O)c1ccccc1 (stereo not given)
2. CC(C)OC(=O)c1ccc2n1CCCc1cnc(Nc3ccccc3)nc1-2
3. CCC(C)C1NC(=O)C(CCCCN)NC(=O)C(CCCCN)NC(=O)C(CC(C)C)NC(=O)C(CCCCN)NC(=O)C(C(C)CC)NC(=O)C(C(C)C)NC(=O)C(C(C)CC)NC(=O)C(CCCCN)NC(=O)C(CCCCN)NC(=O)C(C)NC(=O)C(CCCCN)NC(=O)C(CC(C)C)NC1=O (stereo not given)
4. O=C1C(Cl)=C(Nc2ccc(Nc3ccccc3)c(NC3=C(Cl)C(=O)c4ccccc4C3=O)c2)C(=O)c2ccccc21
5. CSC1=Nc2c(c(C)c(-c3ccccc3)n2CCCCl)C2=NC(=O)CN12
6. Cc1ccc(CC(=O)O)c(C)c1
7. CC(=N\N=C(N)N)/C(=N/N=C(N)N)c1ccccc1
8. COc1ccc2c(c1)/C(=C1/S/C(=N/c3nnc(C)s3)NC1=O)C(=O)N2Cc1ccc(Br)cc1

Outgoing:
["90.7% (inactive)", "43.7% (inactive)", "35.4% (inactive)", "56.2% (inactive)", "64.9% (inactive)", "103% (inactive)", "103% (inactive)", "27.5% (inactive)"]

Values were extracted from PubChem BioAssay (NCI).
